Measured values drawn from patent US20190071490A1 for this set.

Kindly supply the reported α-human koff values for the records listed here.
- ASSAYED_TARGET: T1, human α-CGRP (Homo sapiens, UniProt P06881)
- T1 construct: 1-37 (WT); purchased GenScript Corporation or Global Peptide Services
- T1 sequence (P06881 83-119 limits assumed): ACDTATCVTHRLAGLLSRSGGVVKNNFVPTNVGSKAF
- PROTOCOL_DESCRIPTION: Biacore SPR affinity of Fab fragments to N-biotinylated human α-CGRP on SA chip
- Assay type: binding
- REPORTED_CONDITIONS: 37° C., screening mode except underlined values
Give bare numbers, in s⁻¹.

{"columns": ["MOLECULE", "α-human koff (s⁻¹)"],
 "data": [
  ["M48: G1 variant; L1 R28N; L2 G50A L56T; H2 E54K A57N S58L; HC-FW3 L99T A100V (antibody, V domains shown) VH: EVQLVESGGGLVQPGGSLRLSCAASGFTFSNYWISWVRQAPGKGLEWVAEIRSKSDNLATHYAEAVKGRFTISRDNAKNSLYLQMNSLRAEDTAVYYCTVYFDYGLAIQNYWGQGTLVTVSS VL: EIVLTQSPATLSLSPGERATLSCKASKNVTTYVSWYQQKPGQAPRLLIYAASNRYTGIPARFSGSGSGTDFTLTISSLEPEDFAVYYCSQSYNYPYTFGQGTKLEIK", 0.000842]
]}

Note: attention shifts to another entry.
Notebook: M67: G1 variant; L1 R28N T30G; L2 L561; H2 E54K A57F; HC-FW3 L99T A100V (antibody, V domains shown) VH: EVQLVESGGGLVQPGGSLRLSCAASGFTFSNYWISWVRQAPGKGLEWVAEIRSKSDFSATHYAEAVKGRFTISRDNAKNSLYLQMNSLRAEDTAVYYCTVYFDYGLAIQNYWGQGTLVTVSS VL: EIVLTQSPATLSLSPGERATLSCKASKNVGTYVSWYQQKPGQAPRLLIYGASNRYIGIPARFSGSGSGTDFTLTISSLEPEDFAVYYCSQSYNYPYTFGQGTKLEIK , α-human koff read as 0.00082
